Entry source: patent US20200317802A1

- tested.target: T1, recombinant human ADAMTS5 (R&D Systems cat #2198-AD) (human, UniProt Q9UNA0 262-622, limits assumed)
- T1 sequence: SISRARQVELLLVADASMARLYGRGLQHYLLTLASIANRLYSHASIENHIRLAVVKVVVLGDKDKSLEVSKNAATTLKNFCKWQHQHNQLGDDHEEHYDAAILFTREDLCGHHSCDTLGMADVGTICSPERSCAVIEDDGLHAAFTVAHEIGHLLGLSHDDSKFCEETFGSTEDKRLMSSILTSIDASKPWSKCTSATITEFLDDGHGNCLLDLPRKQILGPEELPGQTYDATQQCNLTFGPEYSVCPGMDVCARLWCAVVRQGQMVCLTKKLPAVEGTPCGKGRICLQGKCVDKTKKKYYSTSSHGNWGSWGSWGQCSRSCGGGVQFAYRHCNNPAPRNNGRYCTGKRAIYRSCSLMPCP
- test.description: cell-based or functional assay
measure: FRET assay % inh, periplasmic extract (%)

>>> test_result("Nanobody 3B02 (VHH, tagged as tested (anti-Flag detection, IMAC); also called 03B02; 3B2) VHH: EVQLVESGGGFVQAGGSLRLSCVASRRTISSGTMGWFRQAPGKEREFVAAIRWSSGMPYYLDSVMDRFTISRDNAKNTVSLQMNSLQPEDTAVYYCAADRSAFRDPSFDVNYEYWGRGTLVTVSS")
105
>>> test_result("Nanobody 3D02 (VHH, tagged as tested (anti-Flag detection, IMAC); also called 03D02) VHH: EVQLVESGGGLVQAGASLRLSCATSGFTFSPYYMGWFRQAPGKERDFVAAISWSRGILYYTDSTEGRFTISRDNAKNTMYLQMDNLNPEDTAVYYCAASRSPGDPSRTYLYDYWGQGTLVTVSS")
111
>>> test_result("Nanobody 2D12 (VHH, tagged as tested (anti-Flag detection, IMAC); also called 02D12) VHH: EVQLVESGGGLVQAGDSLRLSCAASGRTFSTYFVGWFRQAPGKERDFVAAISRNGARTYYYDSVAGLFTISRDNAKNTVYLQMSSLKPEDTAVYYCAAARISPSDPSNEDGYDYWGQGTLVTVSS")
90
>>> test_result("Nanobody 2A12 (VHH, tagged as tested (anti-Flag detection, IMAC); also called 02A12) VHH: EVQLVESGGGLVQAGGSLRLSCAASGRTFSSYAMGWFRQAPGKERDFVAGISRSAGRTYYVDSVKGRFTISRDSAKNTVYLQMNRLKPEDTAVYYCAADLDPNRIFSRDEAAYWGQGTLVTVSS")
104
>>> test_result("Nanobody 9A05 (VHH) VHH: EVQLVESGGGFVQAGGSLRLSCAASRRTISSGTMGWFRQAPGKEREFVAAIRWSSGITFYPDSVEGRFTISGDNAKNTVSLQMNSLKPEDTAVYYCAADRSALRDPSFEVNYEYWGRGTLVTVSS")
113
>>> test_result("Nanobody 11B06 (VHH, tagged as tested (anti-Flag detection, IMAC)) VHH: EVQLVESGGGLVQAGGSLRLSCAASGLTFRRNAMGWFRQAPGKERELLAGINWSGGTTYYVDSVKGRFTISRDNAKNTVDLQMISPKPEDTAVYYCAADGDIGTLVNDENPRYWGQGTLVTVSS")
106
>>> test_result("Nanobody 13E02 (VHH) VHH: EVQLVESGGGLVQAGGSLRLSCVASGSIFSIDAMGWYRQAPGKERELVASVTTGASPNYGDSVTGRFTASRDRAKNALYLQMNSLKPEDTAVYYCNLIMTIPGGSQIMYWGQGTLVTVSS")
99
>>> test_result("Nanobody 3F04 (VHH, tagged as tested (anti-Flag detection, IMAC); also called 03F04) VHH: EVQLVESGGGSVQAGGSLRLSCVASGRYPMAWFRQAPGKEREFVAGVSWGGDRTYYADSVQGRFTVSRDYAKNTLYLQMNSLKPEDAAVYYCAGDPWGRLFRVKDNYSDWGQGTLVTVSS")
8
>>> test_result("Nanobody 7B11 (VHH, tagged as tested (anti-Flag detection, IMAC); also called 07B11) VHH: EVQLVESGGGLVQPGGSLRLSCAASGSIFSINVMGWYRQAPGKQRELVAAIISGGRTNYADSVKGRFTISRDNSKNTVYLQMNSLRPEDTAVYYCNAEVDAGIYAYGYWGQGTLVTVSS")
90
>>> test_result("Nanobody 2D07 (VHH, tagged as tested (anti-Flag detection, IMAC); also called 02D07; 2D7) VHH: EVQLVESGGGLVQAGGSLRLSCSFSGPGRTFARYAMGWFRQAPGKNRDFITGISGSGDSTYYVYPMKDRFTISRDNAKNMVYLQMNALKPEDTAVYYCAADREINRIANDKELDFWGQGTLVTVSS")
104
>>> test_result("Nanobody 2A02 (VHH, tagged as tested (anti-Flag detection, IMAC); also called 02A02) VHH: EVQLVESGGGLVQPGGSLRLSCAASRRTFSSYVMAWFRQAPGKEREFVAAISRSGDSTYYYDSLEGRFTISRDNAKNTVHLQMNSLKPEDTAVYICAASRAPSFRTIDAINYYDYWGQGTLVTVSS")
91
>>> test_result("Nanobody 2C10 (VHH, tagged as tested (anti-Flag detection, IMAC); also called 02C10) VHH: EVQLVESGGGLVQAGGSLRLSCATSGFTFSPYYMGWFRQAPGKERDFVAAITRSRGTTYYLDSTEGRFTISRDNAKNTMYLQMNSLNPEDTAVYYCAAGRSPGDPSRTYLYEYWGQGTLVTVSS")
90
>>> test_result("Nanobody 2G01 (VHH, tagged as tested (anti-Flag detection, IMAC); also called 02G01) VHH: EVQLVESGGGLVQAGGSLRLSCAASGRTTFSSYAMGWFRQAPGKERAFVATIWSGGLTVYADSAKGRFTISRDNAKNTVYLQMNSLRPEDTAVYYCAAEAVGTYYTPDGWTYWGQGTLVTVSS")
55
>>> test_result("Nanobody 9D09 (VHH) VHH: EVQLVESGGGLVQAGGSLRLSCAASGLTFSSYTMGWFRQAPGQEREFVSAISWNTFTTYYVDSVKDRFTVSRDNAKNTLYLRMNSLKPEDTAVYYCAAAGGSPRQHEPYEYRVWGQGTLVTVSS")
102
>>> test_result("Nanobody 3D01 (VHH, tagged as tested (anti-Flag detection, IMAC); also called 03D01) VHH: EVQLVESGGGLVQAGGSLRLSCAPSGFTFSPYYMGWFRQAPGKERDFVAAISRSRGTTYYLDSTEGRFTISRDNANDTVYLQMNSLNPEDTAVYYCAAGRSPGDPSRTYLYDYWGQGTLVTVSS")
111
